target: human melanocortin-4 (MC-4) receptor (human, UniProt P32245); assay: displacement of 125I-NDP-alpha-MSH, membranes of HEK 293 cells with hMC4 (value column 1)
Square brackets hold non-standard residues; d marks the D form. Ends that are not written are not given here. Abu = CC[C@H](N)C(=O)O
Readout Kind: IC50

According to the records, this binder [Abu][Abu]DPCAT[Abu]YCRFFNAFCY[Abu]RKLGTAMNPCSRT (disulfide (positions not given here); not fully specified (bridges); also: disulfide pairing not given here) [peptide of SEQ ID NO:9] displays IC50 of 600 nM

According to the records, this binder HESCLGQQVPC[Abu]DP[Abu]ATCY[Abu]RFFNAF[Abu]YCRKL (disulfide (positions not given here)) [peptide of SEQ ID NO:5] displays IC50 of > 1000 nM

---
According to the records, this binder C[Abu]DPCAT[Abu]Y[Abu]RFFNAF[Abu]YCRKLGTAMNPCSRT (disulfide (positions not given here); also: oxidised to disulfides, pairs not given here) [peptide of SEQ ID NO:11] displays IC50 of > 1000 nM
